- experimental_protocol: Cytotoxicity counterscreen for inhibitors of SARS-CoV-2 cell entry (AID 1645845); also: nearly all actives have a fitted effect of over 50% in size
- condition_info: cell viability (SARS-CoV-2 entry assay cells); series mostly up to 57.1 µM
Records with an inconclusive call do not appear. Calls of active or inactive are those of the source. Calls follow the shape of the full dose curve.

compound: COc1ccc(-c2oc3c(CC=C(C)C)c(OC4O[C@H](CO)[C@@H](O)[C@H](O)[C@H]4O)cc(O)c3c(=O)c2OC2O[C@@H](C)[C@H](O)[C@@H](O)[C@H]2O)cc1 (some centres undefined)
outcome: inactive

compound: CC(C)=CCC/C(C)=C/CC/C(C)=C/CC/C(C)=C/CC1=C(C)C(=O)c2ccccc2C1=O
outcome: inactive

compound: C[C@H](NCCc1ccc(O)cc1)[C@H](O)c1ccc(O)cc1
outcome: inactive

compound: OCCOc1ccc(/C(=C(/CCCl)c2ccccc2)c2ccccc2)cc1
outcome: inactive

Recorded values, source PubChem BioAssay (NCATS).
